B1: ACSBG2 (parent)
chain: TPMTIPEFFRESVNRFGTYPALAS

- Variants of: B1
- test.summary: protein stability index of a GFP-peptide fusion (GPS, HEK-293T) (PSI 1-6); higher = more stable;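 further: lentivirally expressed fusions sorted by FACS into six bins by GFP to DsRed ratio, PSI derived from sequencing read proportions per bin multiplied by bin number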
- condition.info: c terminus: a fixed tail appended
Listing of recorded protein stability index by entry.
Reply: number alone, nothing else.

mutation.list	property.measured	numeric.readout
F16I	protein stability index	2.36

input: What measured protein stability index goes with P6N ?
output: 2.05

input: Given the variant T18S , what is its reported protein stability index?
output: 2.06

input: Recorded protein stability index of T4N , please.
output: 2.4

input: Please give the measured protein stability index for this variant: F16D
output: 3.62

input: Which value of protein stability index has been reported for R15Q in the records?
output: 2.69

input: Recorded protein stability index for P6W , please?
output: 2.67
